src = patent US20250295799A1

Entries and their pKd values follow.
target: T1, human glypican-3 (GPC3) (human, UniProt P51654 25-554); experiment: flow cytometry on JHH-5 cells; antibody in mouse plasma, day 0
T1 construct: Endogenous on JHH-7, JHH-5, HepG2 and NCI-H446 tumour cells, or transiently expressed on CHO-S cells from a pTT5 plasmid; also called hGPC3; huGPC3
# pKd is unitless: minus log10 of the molar concentration; print number only

H18L6_LC_G34Q mAb, v40208 (antibody, human IgG1, kappa, V domains shown, Full-size IgG1/kappa) VH: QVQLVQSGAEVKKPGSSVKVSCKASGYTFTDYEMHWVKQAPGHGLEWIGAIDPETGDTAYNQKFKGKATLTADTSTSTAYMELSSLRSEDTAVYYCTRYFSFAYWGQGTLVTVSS VL: EIVLTQSPATLSLSPGERATISCRSSQSLRHSNQNTYLQWYQQKPGQAPRLLIYKVSNRFSGVPARFSGSGSGTDFTLTISSLEPEDFAVYFCYQSKHVPYTFGGGTKVEIKR	9.96

Given H18L6_LC_G34E mAb, v40204 (antibody, human IgG1, kappa, V domains shown, M3-H18L6 chains with the stated light chain point mutation, IgG1/kappa) VH: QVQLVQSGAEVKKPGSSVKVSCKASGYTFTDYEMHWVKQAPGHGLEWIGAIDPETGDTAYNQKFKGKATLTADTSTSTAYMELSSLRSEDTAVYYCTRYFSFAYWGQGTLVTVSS VL: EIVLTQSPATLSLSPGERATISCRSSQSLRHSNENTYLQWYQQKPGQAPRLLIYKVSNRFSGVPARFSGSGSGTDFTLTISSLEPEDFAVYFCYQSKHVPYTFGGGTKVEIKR , state its recorded pKd. 9.96

// same read-out, input: H18L6_LC_G34D mAb, v40203 (antibody, human IgG1, kappa, V domains shown) VH: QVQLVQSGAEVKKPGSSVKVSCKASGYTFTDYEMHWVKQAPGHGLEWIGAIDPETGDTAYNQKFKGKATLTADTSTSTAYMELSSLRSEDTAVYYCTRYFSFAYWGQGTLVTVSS VL: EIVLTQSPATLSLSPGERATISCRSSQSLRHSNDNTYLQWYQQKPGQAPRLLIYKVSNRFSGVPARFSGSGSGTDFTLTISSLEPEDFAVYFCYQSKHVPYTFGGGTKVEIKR 9.96

Next binder up: H18L6_LC_G34K mAb, v40207 (antibody, human IgG1, kappa, V domains shown, Full-size IgG1/kappa) VH: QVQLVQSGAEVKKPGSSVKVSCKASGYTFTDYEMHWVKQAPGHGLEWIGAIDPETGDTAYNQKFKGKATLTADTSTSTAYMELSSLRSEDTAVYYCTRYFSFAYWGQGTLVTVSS VL: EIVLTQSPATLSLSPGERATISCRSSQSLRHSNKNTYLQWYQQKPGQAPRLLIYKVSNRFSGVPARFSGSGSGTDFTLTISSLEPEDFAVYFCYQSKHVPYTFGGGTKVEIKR 10.15
